Kindly supply the reported Plant response rating, Nutsedge, Yellow values for the records listed here.
Tested on: nutsedge, yellow (yellow nutsedge, Cyperus esculentus)
method: Test E greenhouse herbicide test, pre- and postemergence
Type: in vivo
measurement.parameters: 62 g ai/ha, Preemergence; scale 0 to 100 (0 no effect, 100 complete control)
Source text: […]

What does the data say about its Plant response rating, Nutsedge, Yellow? Entry: `Cc1ccc2ccccc2c1-c1c(O)c(I)nn(C)c1=O`
0

Consider next the molecule `Cc1nn(C)c(=O)c(-c2ccc(F)c3ccccc23)c1O` in the same way.
65

Consider next the molecule `Cc1nn(C)c(=O)c(-c2ccc(Br)c3ccccc23)c1O` in the same way.
10

Consider next the molecule `Cc1cc(C)c2sc(C)c(-c3c(O)c(C)nn(C)c3=O)c2c1` in the same way.
35

Consider next the molecule `COC(=O)Oc1c(C)nn(C)c(=O)c1-c1c(C)sc2ccc(C)cc12` in the same way.
40

Consider next the molecule `Cc1ccc2sc(Br)c(-c3c(O)c(C)nn(C)c3=O)c2c1` in the same way.
60
